// reported log10(IC50) per item
Assay: Displacement of Biocillin FL from Streptococcus pneumoniae 24 PBP2X
Short version: log10 scale, IC50, µg/mL.

# example entries with known answers
C[C@@H](O)[C@H]1C(=O)N2C(C(=O)O)=C([C@H]3CCCO3)S[C@H]12 [FAROPENEM] ... -0.12
CC1(C)S[C@@H]2[C@H](NC(=O)Cc3ccccc3)C(=O)N2[C@H]1C(=O)O [PENICILLIN G] ... -0.49
CO/N=C(\C(=O)N[C@@H]1C(=O)N2C(C(=O)O)=C(COC(N)=O)CS[C@H]12)c1ccco1 [CEFUROXIME] ... -0.70

stdin: GET /values?readout=log10(IC50)&item= CC1(C)S[C@@H]2[C@H](NC(=O)[C@H](N)c3ccc(O)cc3)C(=O)N2[C@H]1C(=O)O [AMOXICILLIN]
stdout: -0.93

stdin: // repeat for C[C@@H](O)[C@H]1C(=O)N2C(C(=O)O)=C(SCCNC=N)C[C@H]12 [IMIPENEM ANHYDROUS] and report
stdout: 0.31
